Assay: Cellular Toxicity (caspase-3) MRC-5 (AID 659);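 also: cells exposed to compound for 16 h at 37 °C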
Conditions: MRC-5 cells, luminescence; caspase-3 activation; series mostly up to 91.7 µM
Description: NIH Chemical Genomics Center [NCGC] NIH Molecular Libraries Screening Centers Network [MLSCN] National Institutes of Environmental Health Sciences [NIEHS] National Toxicology Program [NTP] We have developed a 1536-well cell-based assay for quantitative high throughput screening (qHTS) against a number of cell lines to determine in vitro caspase 3/7 activity of small molecules. […] 8. Detection; Luminescence; Viewlux plate reader […]
Calls of active or inactive are those of the source. Calls follow the shape of the dose curve; as a rule, active = well fitted curve in the direction sought with a large enough effect; inconclusive = small, poorly fitted or top-dose-only effect, or another doubt; inactive = no such curve, though single readings can be large or run the other way.
Field 'call' accepts t (active), f (inactive)

IN: Given O=c1c(-c2ccc(O)cc2)coc2cc(O)ccc12 , state the outcome it received in this test.
OUT: f

IN: Given CC1=C(/C=C/C(C)=C/C=C/C(C)=C/C(=O)Nc2ccc(O)cc2)C(C)(C)CCC1 , state the outcome it received in this test.
OUT: t

IN: Given O=C(O)c1cc(O)c2c(c1)C(=O)c1cccc(O)c1C2=O , state the outcome it received in this test.
OUT: f

IN: Given CC(=O)c1ccc(S(=O)(=O)NC(=O)NC2CCCCC2)cc1 , state the outcome it received in this test.
OUT: f

IN: Given CC(=O)O[C@]1(C(C)=O)CC[C@H]2[C@@H]3C=C(Cl)C4=CC(=O)[C@@H]5C[C@@H]5[C@]4(C)[C@H]3CC[C@@]21C , state the outcome it received in this test.
OUT: f

IN: Given O=c1c(O)c(-c2ccc(O)cc2)oc2cc(O)cc(O)c12 , state the outcome it received in this test.
OUT: f

IN: Given CCn1cc(C(=O)O)c(=O)c2ccc(C)nc21 , state the outcome it received in this test.
OUT: f

IN: Given O=c1[nH]cnc2c1ncn2[C@H]1CC[C@@H](CO)O1 , state the outcome it received in this test.
OUT: f
